Numbers sourced from patent US20230151091A1.

# studySystem: T1, rat MuSK (rat, UniProt Q62838 22-494, limits assumed)
# T1 construct: Coated on Biacore chip (200RU) or ELISA plate
# T1 sequence (looked up): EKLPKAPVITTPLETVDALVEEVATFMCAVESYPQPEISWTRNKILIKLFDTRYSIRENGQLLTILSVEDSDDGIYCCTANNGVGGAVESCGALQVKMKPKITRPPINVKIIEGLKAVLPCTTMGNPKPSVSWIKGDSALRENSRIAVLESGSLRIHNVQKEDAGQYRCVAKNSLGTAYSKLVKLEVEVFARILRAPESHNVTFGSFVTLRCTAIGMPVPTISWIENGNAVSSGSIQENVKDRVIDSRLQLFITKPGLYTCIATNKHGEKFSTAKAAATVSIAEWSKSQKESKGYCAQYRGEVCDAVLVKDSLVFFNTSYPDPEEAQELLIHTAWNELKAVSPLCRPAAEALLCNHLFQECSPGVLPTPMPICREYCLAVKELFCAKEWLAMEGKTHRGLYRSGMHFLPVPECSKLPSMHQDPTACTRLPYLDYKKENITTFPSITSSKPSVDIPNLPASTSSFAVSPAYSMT
# experiment: Biacore, MuSK on chip, association pH 7.4, dissociation pH 5.5
Reported values of koff for individual entries
Write the number in s⁻¹ without appending the unit.

binder: 3B2g1m4 (antibody, human IgG1, V domains shown, human IgG1-LALA backbone; produced in HEK293 cells) VH: EVQLLESGGGLVQPGGSLRLSCAASGFTFSDYGMSWVRQAPGKGLEWVSAIPWQGGSTYYKESVKGRFTISRDNSKNTLYLQMNSLRAEDTAVYYCAKRSGRIAFGALDAWGQGTLVTVSS VL: QTVVTQEPSFSVSPGGTVTLTCGLSSGSVTSSNYPDWYQQTPGQAPRTLIYSTDSRHSGVPDRFSGSILGNKAALTITGAQADDESDYYCGLYMYSGSKNYVFGGGTKLTVL
koff, s⁻¹: 0.00558

Let's switch to this binder now.
What value of measured koff is listed for 3B2g1m2 (antibody, human IgG1, V domains shown, human IgG1-LALA backbone; produced in HEK293 cells) VH: EVQLLESGGGLVQPGGSLRLSCAASGFTFSDYGMSWVRQAPGKGLEWVSAIPGSGGSTYYKESVKGRFTISRDNSKNTLYLQMNSLRAEDTAVYYCAKRSGRIAFGALDAWGQGTLVTVSS VL: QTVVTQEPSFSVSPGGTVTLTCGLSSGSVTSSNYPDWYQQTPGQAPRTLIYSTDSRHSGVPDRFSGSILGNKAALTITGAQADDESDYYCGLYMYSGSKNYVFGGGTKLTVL ?
0.0865
